- assay.target: human CYP11B1 (Homo sapiens)
- Construct: expressed in transfected cells
- assay: G-402 cellular enzyme assay, human CYP11B1 (cortisol release, HTRF)
- Type: cell-based
- protocol.conditions: G-402 cells, 1 μM Deoxycortisol
pEC50: −log10 of the molar value.
Decide using pEC50: a value greater than or equal to 6 is condition met, a smaller one is condition not met.

>  <molecule>
CCC1c2ccc(Cl)cc2C(=O)N1c1cncc(F)c1 (single isomer, unassigned) [Example 307]

>  <assay.target>
human CYP11B1 (Homo sapiens)

>  <label>
condition not met

$$$$
>  <molecule>
O=C1c2ccc(Cl)cc2CCN1c1cncc(COCC2CCCO2)c1 (centres unmarked)

>  <assay.target>
human CYP11B1 (Homo sapiens)

>  <label>
condition met

$$$$
>  <molecule>
CCS(=O)(=O)N1CCN(c2cncc(N3C(=O)c4ccc(Cl)cc4C3(C)C)c2)CC1

>  <assay.target>
human CYP11B1 (Homo sapiens)

>  <label>
condition met

$$$$
>  <molecule>
Cc1ncn(C)c1-c1cncc(N2CCc3cc(Cl)ccc3C2=O)c1

>  <assay.target>
human CYP11B1 (Homo sapiens)

>  <label>
condition met

$$$$
>  <molecule>
Cn1ncc(C#N)c1-c1cncc(N2CCc3cc(Cl)ccc3C2=O)c1

>  <assay.target>
human CYP11B1 (Homo sapiens)

>  <label>
condition met

$$$$
>  <molecule>
O=C1c2ccc(Cl)cc2C2(CC2)N1c1cncc(OC(F)F)c1

>  <assay.target>
human CYP11B1 (Homo sapiens)

>  <label>
condition met

$$$$

* * *

pEC50 by entry:
- assay.target: human CYP11B1 (Homo sapiens, UniProt P15538)
- assay: G-402 cellular enzyme assay, human CYP11B1 (cortisol release, HTRF)
- protocol.conditions: G-402 cells, 1 μM Deoxycortisol
pEC50: −log10 of the molar value.

>  <compound>
CC(c1cncc(N2CCc3cc(Cl)ccc3C2=O)c1)N1CCCC1=O (stereo not drawn)

>  <pEC50>
5.98

$$$$
>  <compound>
Cc1n[nH]c(C)c1-c1cncc(N2CCc3cc(Cl)ccc3C2=O)c1

>  <pEC50>
7.47

$$$$
>  <compound>
O=C1c2ccc(Cl)cc2CCN1c1cncc(CN2CCC(O)C2)c1 (stereo not drawn)

>  <pEC50>
6.94

$$$$
>  <compound>
CC(=O)NCc1cncc(N2C(=O)c3ccc(Cl)cc3C2(C)C)c1

>  <pEC50>
5.56

$$$$
>  <compound>
CC(=O)N1CCN(c2cncc(N3C(=O)c4ccc(Cl)cc4C3(C)C)c2)CC1

>  <pEC50>
6.14

$$$$
>  <compound>
CC1(C)c2cc(Cl)ccc2C(=O)N1c1cncc(CN2CCCCS2(=O)=O)c1

>  <pEC50>
6.32

$$$$
>  <compound>
CC1CN(c2cccnc2)C(=O)c2ccc(Cl)cc21 (stereo not drawn)

>  <pEC50>
5.35

$$$$
>  <compound>
O=C1c2ccc(Cl)cc2CCN1c1cncc(Cc2cc(Cl)ccc2Cl)c1

>  <pEC50>
6.10

$$$$
>  <compound>
COc1ccc2c(n1)C(C)(C)N(c1cncc(F)c1)C2=O

>  <pEC50>
5.01

$$$$

* * *

pEC50 by entry:
- assay.target: human CYP11B1 (Homo sapiens)
- Sequence (P15538 25-503): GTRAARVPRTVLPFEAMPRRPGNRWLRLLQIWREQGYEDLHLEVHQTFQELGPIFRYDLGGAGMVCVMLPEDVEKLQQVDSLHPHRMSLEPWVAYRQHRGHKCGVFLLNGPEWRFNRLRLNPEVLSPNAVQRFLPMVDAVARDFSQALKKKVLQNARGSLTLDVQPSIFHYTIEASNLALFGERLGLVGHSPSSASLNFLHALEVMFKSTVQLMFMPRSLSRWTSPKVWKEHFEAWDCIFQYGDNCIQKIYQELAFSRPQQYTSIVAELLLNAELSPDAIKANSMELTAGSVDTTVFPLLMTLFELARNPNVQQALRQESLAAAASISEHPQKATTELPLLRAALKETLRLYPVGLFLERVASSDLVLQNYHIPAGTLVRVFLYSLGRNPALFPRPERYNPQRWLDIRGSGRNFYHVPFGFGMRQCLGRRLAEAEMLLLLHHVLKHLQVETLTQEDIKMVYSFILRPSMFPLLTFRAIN
- assay: G-402 cellular enzyme assay, human CYP11B1 (cortisol release, HTRF)
- protocol.conditions: G-402 cells, 1 μM Deoxycortisol
pEC50: −log10 of the molar value.

>  <molecule>
CCC1c2cc(Cl)ccc2C(=O)N1c1cccnc1 (stereo not drawn)

>  <pEC50>
5.48

$$$$
>  <molecule>
O=C1c2ccc(Cl)cc2CCN1c1cncc(COCC2CC2)c1

>  <pEC50>
6.00

$$$$
>  <molecule>
CC(O)(c1cncc(N2CCc3cc(Cl)ccc3C2=O)c1)c1ccc(F)c(F)c1 (stereo not drawn)

>  <pEC50>
6.73

$$$$
